B1: CDC14A (parent)
chain: LNLAMVYRYCCKLNKKLKSYSLSR

# Variants of: B1
# assay_procedure: protein stability index of a GFP-peptide fusion (GPS, HEK-293T) (PSI 1-6); higher = more stable;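 also: lentivirally expressed fusions sorted by FACS into six bins by GFP to DsRed ratio, PSI derived from sequencing read proportions per bin multiplied by bin number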
# experimental_context: c terminus: a fixed tail appended
Classification field: enter criterion met for protein stability index values not below 3, criterion not met for values below it.

[[record]]
mutant_designation = "M5F"
qualitative_label = "criterion not met"

[[record]]
mutant_designation = "M5Y"
qualitative_label = "criterion met"

[[record]]
mutant_designation = "M5H"
qualitative_label = "criterion met"

[[record]]
mutant_designation = "Y7M"
qualitative_label = "criterion not met"

[[record]]
mutant_designation = "R8E"
qualitative_label = "criterion not met"

[[record]]
mutant_designation = "S19M"
qualitative_label = "criterion met"

[[record]]
mutant_designation = "R8K"
qualitative_label = "criterion not met"

[[record]]
mutant_designation = "L22Y"
qualitative_label = "criterion met"

[[record]]
mutant_designation = "K18S"
qualitative_label = "criterion not met"

[[record]]
mutant_designation = "C10I"
qualitative_label = "criterion met"

[[record]]
mutant_designation = "K18M"
qualitative_label = "criterion met"

[[record]]
mutant_designation = "N14I"
qualitative_label = "criterion not met"

[[record]]
mutant_designation = "C10Y"
qualitative_label = "criterion met"

[[record]]
mutant_designation = "S23L"
qualitative_label = "criterion not met"

[[record]]
mutant_designation = "K12V"
qualitative_label = "criterion not met"

[[record]]
mutant_designation = "C10Q"
qualitative_label = "criterion not met"

[[record]]
mutant_designation = "S19A"
qualitative_label = "criterion met"

[[record]]
mutant_designation = "L22F"
qualitative_label = "criterion met"

[[record]]
mutant_designation = "A4S"
qualitative_label = "criterion met"

[[record]]
mutant_designation = "A4Q"
qualitative_label = "criterion met"

[[record]]
mutant_designation = "V6G"
qualitative_label = "criterion not met"

[[record]]
mutant_designation = "R24Q"
qualitative_label = "criterion met"

[[record]]
mutant_designation = "C11G"
qualitative_label = "criterion met"

[[record]]
mutant_designation = "R8Q"
qualitative_label = "criterion not met"

[[record]]
mutant_designation = "L13S"
qualitative_label = "criterion not met"

[[record]]
mutant_designation = "S23A"
qualitative_label = "criterion met"

[[record]]
mutant_designation = "K12Y"
qualitative_label = "criterion not met"

[[record]]
mutant_designation = "S23R"
qualitative_label = "criterion met"

[[record]]
mutant_designation = "A4T"
qualitative_label = "criterion not met"

[[record]]
mutant_designation = "L1E"
qualitative_label = "criterion met"

[[record]]
mutant_designation = "L3H"
qualitative_label = "criterion not met"

[[record]]
mutant_designation = "L13M"
qualitative_label = "criterion met"

[[record]]
mutant_designation = "A4N"
qualitative_label = "criterion met"

[[record]]
mutant_designation = "K18C"
qualitative_label = "criterion not met"

[[record]]
mutant_designation = "R8Y"
qualitative_label = "criterion not met"

[[record]]
mutant_designation = "K12W"
qualitative_label = "criterion not met"

[[record]]
mutant_designation = "C10P"
qualitative_label = "criterion not met"

[[record]]
mutant_designation = "V6S"
qualitative_label = "criterion not met"

[[record]]
mutant_designation = "C11W"
qualitative_label = "criterion not met"

[[record]]
mutant_designation = "L22V"
qualitative_label = "criterion not met"

[[record]]
mutant_designation = "Y7N"
qualitative_label = "criterion not met"

[[record]]
mutant_designation = "M5T"
qualitative_label = "criterion met"

[[record]]
mutant_designation = "L1T"
qualitative_label = "criterion not met"

